- Subject of test: Muscarinic acetylcholine receptor M1 (Homo sapiens)
- Sequence (whole entry): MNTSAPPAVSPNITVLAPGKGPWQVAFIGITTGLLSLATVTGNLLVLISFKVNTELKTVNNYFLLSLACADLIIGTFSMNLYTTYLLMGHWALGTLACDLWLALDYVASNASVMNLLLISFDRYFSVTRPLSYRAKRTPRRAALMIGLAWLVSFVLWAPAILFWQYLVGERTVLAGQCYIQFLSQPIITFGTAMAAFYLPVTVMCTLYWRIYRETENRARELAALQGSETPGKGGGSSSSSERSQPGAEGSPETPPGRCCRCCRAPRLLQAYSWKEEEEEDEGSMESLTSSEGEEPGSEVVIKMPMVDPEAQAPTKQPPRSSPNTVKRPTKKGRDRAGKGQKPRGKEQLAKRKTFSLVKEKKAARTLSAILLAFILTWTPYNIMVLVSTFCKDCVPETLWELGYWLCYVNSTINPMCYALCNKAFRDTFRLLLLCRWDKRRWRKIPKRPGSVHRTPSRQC
- Setup conditions: Compound concentration 10 µM
- Description: PDSP Primary Binding target: CHRM1 - Compounds are tested at 10 uM concentration, plate are incubated at room temperature in the dark for 90 minutes. Reaction are stopped by vacuum filtration onto 0.3% polyethyleneimine soaked filter mats using Filtermate harvester. Scintilation cocktail is then melted onto microwave-dried filters on a hot plate and the radio activity is counted in Microbia counter.
Label scheme for inhibition: lower than 10% is f, 10% and above is t.

CC1(C)SSC(C)(C)[C@@H](NC(=O)[C@@H](N)Cc2ccc(O)cc2)C(=O)NCC(=O)N[C@@H](Cc2ccccc2)C(=O)N[C@H]1C(=O)O    f
O=S1(=O)c2cccc3cccc(c23)N1CCCN1CCN(c2ccc(F)cc2)CC1    t
N#Cc1c(N)nc(SCc2csc(-c3ccc(Cl)cc3)n2)c(C#N)c1-c1ccc(OCCO)cc1    f
COc1ccc(NC(=O)c2ccc(-c3ccc(-c4noc(C)n4)cc3C)cc2)cc1OCCN(C)C    t
CCOC(=O)c1c(C)[nH]c2ccc3c(c12)CN1CCc2cc(OC)ccc2C1O3 (stereo not given)    t

Exercise: Has CN1C2CCC1CC(OC(c1ccc(F)cc1)c1ccc(F)cc1)C2 (stereo not given) a recorded inhibition greater than or equal to 10%?
Solution: t

Exercise: Please indicate if the recorded inhibition for Clc1cccc(COc2cncc(N3CCNCC3)n2)c1 meets or exceeds 10%.
Solution: t

Exercise: Determine whether measured inhibition meets or exceeds 10% for C[C@H](CO)Nc1nc(SCc2cccc(Cl)c2F)nc2[nH]c(=O)sc12
Solution: f

Exercise: Check the entry C[C@@H](N)Cc1c[nH]cn1 : does inhibition equal or exceed 10%?
Solution: f

Exercise: Confirm if inhibition reported for the molecule Clc1ccc(CCCOCCCN2CCCCC2)cc1 is 10% or above.
Solution: t

Exercise: Determine whether measured inhibition meets or exceeds 10% for CCCCCCCCCCCCCCCCOC[C@H](COP(=O)([O-])OCC[N+](C)(C)C)OC(C)=O
Solution: t

Exercise: Has CCc1ccc(OCc2ccccc2C(=O)Nc2ccc3nc(C)cc(N)c3c2)cc1 a recorded inhibition greater than or equal to 10%?
Solution: t

Exercise: API: above_or_equal(metric=inhibition, cutoff=10%) for item N#Cc1cccc(C(=O)Nc2cc(-c3ccccc3)nn2-c2ccccc2)c1
Solution: f

Exercise: Can Cc1cc(NC(=O)NCCN2CCC(O)(Cc3ccccc3)CC2)c2ccccc2n1 be said to have inhibition at or above 10%?
Solution: t

Hey, just so you know, these numbers are from ChEMBL document CHEMBL5442219.
